PROTOCOL TEXT: Plasma pharmacokinetics of Compound I after single intraperitoneal dose in Swiss-Webster mice (Example 1)
Assay type: in vivo
STUDY CONDITIONS: female, CFW (Swiss-Webster), mouse, plasma, ip, 5 mg/kg, mouse plasma, 5 mg/kg intraperitoneal, samples m.p. 1.x = 1st time point (0.08 h), individual animals; read-out: Calc. Conc. (plasma concentration)
MEASURED ENDPOINT: concentration at 0.08 h

Quick check: concentration at 0.08 h of O=C(O)C[C@@H]1CC[C@H](NC(=O)Cc2cccs2)B(O)O1 ? 5580 ng/mL

###

PROTOCOL TEXT: Single-dose pharmacokinetics of Compound I, intraperitoneal administration to Swiss-Webster mice (Example 5)
Type: in vivo
STUDY CONDITIONS: plasma, Mouse, 50 mg/kg IP
MEASURED ENDPOINT: half-life (min)
One number for each entry, in min.

Quick check: half-life of O=C(O)C[C@@H]1CC[C@H](NC(=O)Cc2cccs2)B(O)O1 [Compound I] ? 15

###

Exercise: state measured half-life for each of the compounds provided.
PROTOCOL TEXT: Plasma pharmacokinetics of Compound I and Biapenem alone or in combination after 1.5 hour intravenous infusion in Sprague-Dawley rats (Example 3)
Assay type: in vivo
STUDY CONDITIONS: male, Sprague-Dawley, rat, plasma, iv, 20 mg/kg, Sprague-Dawley rats, 1.5 hour intravenous infusion, administered alone
Protocol: Example 3 provides a summary of the pharmacokinetic studies of Compound I alone or in combination with Biapenem following a single intravenous infusion dose in Sprague-Dawley rats. […] After acclimation, rats (n=3) were administered single 20 mg/kg intravenous infusion doses of Compound I or Biapenem alone or in combination. […] The plasma samples were stored on −80° C. until analyzed. […]
Give bare numbers, in min.

> print(dat)
                                   compound   val
1  C[C@@H](O)[C@H]1C(=O)N2C(C(=O)[O-])=C(SC3Cn4cnc[n+]4C3)[C@H](C)[C@H]12 (some centres unmarked) [Biapenem]  12.6

Please find the next compound below.
Quick check: half-life of O=C(O)C[C@@H]1CC[C@H](NC(=O)Cc2cccs2)B(O)O1 [Compound I] ? 43.2

###

PROTOCOL TEXT: in vivo
Set-up: species or system Swiss-Webster mice
STUDY CONDITIONS: female, CFW (Swiss-Webster), mouse, ip, 100 mg/kg, Calc. Conc. (plasma concentration)
MEASURED ENDPOINT: concentration at 0.75 h (ng/mL)
One number for each entry, in ng/mL.

Quick check: concentration at 0.75 h of C[C@@H](O)[C@H]1C(=O)N2C(C(=O)[O-])=C(SC3Cn4cnc[n+]4C3)[C@H](C)[C@H]12 (stereo partly shown) ? 30500

###

Exercise: state measured AUC for each of the compounds provided.
PROTOCOL TEXT: Plasma pharmacokinetics of Compound I and Biapenem alone or in combination after 1.5 hour intravenous infusion in Sprague-Dawley rats (Example 3)
Type: in vivo
STUDY CONDITIONS: male, Sprague-Dawley, rat, plasma, iv, 20 mg/kg, Sprague-Dawley rats, 1.5 hour intravenous infusion, administered alone
Numbers only, in ng·h/mL.

> print(dat)
                                   compound  measured.endpoint    val
1  O=C(O)C[C@@H]1CC[C@H](NC(=O)Cc2cccs2)B(O)O1                AUC  11000

Quick check: AUC of C[C@@H](O)[C@H]1C(=O)N2C(C(=O)[O-])=C(SC3Cn4cnc[n+]4C3)[C@H](C)[C@H]12 (some centres unmarked) ? 8950
